pIC50: −log10 of the molar value.
Let's go through some recorded pIC50 values for FGFR2 (Homo sapiens) together.

Answered cases to consult:
C=CC(=O)Nc1cccc(-c2cccc3cnc(Nc4ccc(N5CCN(CCO)CC5)cc4)nc23)c1 [Example C059]: 6.30 to 7.00
C=CC(=O)Nc1cccc(-c2cccc3cnc(Nc4ccc(N5CCN(CCO)CC5)c(F)c4F)nc23)c1 [Example C151]: 6.30 to 7.00

Then this molecule:
Returns the measured pIC50 for the input molecule. Input: C=CC(=O)Nc1cccc(-c2cccc3cnc(Nc4ccc(N5CCN(CCO)CC5)cc4F)nc23)c1 [Example C147]
6.30 to 7.00
